assay: qHTS Assay for Lipid Storage Modulators in Drosophila S3 Cells; conditions: BODIPY lipid droplet fluorescence, 18-24 h, cells fed with added oleic acid; series mostly up to 46.1 µM; also: potency is read from the fitted curve at half-maximal effect
About 2,100 (0.66%) of roughly 320,000 compounds were called active. Another 53% or so got no clear call; they are omitted. The sample holds actives, similar compounds and a random draw of the others, so the mix is not that of the screen.
RECORDED_ENDPOINT: Potency

COMPOUND	Potency
CCCCSc1nc2sc3c(c2c(=O)n1-c1ccc(C)cc1)CCN(C)C3	inactive
C=CCNC(=O)/C(C#N)=C\c1cc(Cl)c(OCC)c(OC)c1	14.6 µM (active)
COc1cc(/C=C(/C#N)C(=O)NCc2ccccc2)cc(OC)c1OC	inactive
Cc1ccc(N2C(=O)C3C4C=CC(CC4)C3C2=O)c([N+](=O)[O-])c1 (stereo unspecified)	inactive
Oc1cccc(/C=N/Nc2ccc(Cl)nn2)c1	inactive

Switching to the query record.
If you can, please state the reported Potency value of "C=CCNC(=O)/C(C#N)=C\c1cc(Cl)c(O)c(OCC)c1" .
inactive
